- System: RSV replicon
- measurement.protocol: microbe, parasite or virus in culture
- Type: cell-based
- particulars: human respiratory syncytial virus, read-out: EC50, the concentration of the drug required for reducing RSV replicon RNA by 50%

compound | EC50
COc1cc(C(=O)NCC(O)(c2cc(C(C)(C)N)cc(-c3ccc(F)c(Cl)c3)n2)C(F)(F)F)ccc1OCC(C)OC(=O)OC(C)C (stereo not drawn) | < 1 µM
COc1cc(C(=O)NCC(O)(c2cc(C(C)(N)CF)cc(-c3ccc(F)cc3)n2)C(F)(F)F)ccc1OCC(N)=O (stereo not drawn) | < 1 µM
COc1cc(C(=O)NCC(O)(c2cc3c(c(-c4ccc(F)c(Cl)c4)n2)NCC3(C)C)C(F)(F)F)ccc1OC1CC1 (stereo not drawn) | < 1 µM
